Recorded measurements of 0.1 µM (% DMSO), one per entry
- Test system: expanded OPCs
- assay_procedure: cells
- condition_parameters: alamarBlue viability of expanded OPCs, compound at 0.1 µM, relative to DMSO control
readout_label: 0.1 µM (% DMSO)

INSERT INTO results (compound, readout_label, recorded_value) VALUES
  ('CN1[C@@H]2CC[C@H]1C[C@@H](OC(c1ccccc1)c1ccccc1)C2', '0.1 µM (% DMSO)', 139.9),
  ('Nc1nc2c(ncn2COCCO)c(=O)[nH]1', '0.1 µM (% DMSO)', 98.2),
  ('CC(=O)OCC(=O)[C@@]12OC3(CCCC3)O[C@@H]1C[C@H]1[C@@H]3CCC4=CC(=O)C=C[C@]4(C)[C@@]3(F)[C@@H](O)C[C@@]12C [Amcinonide]', '0.1 µM (% DMSO)', 113.8),
  ('C/C(=C\C(=O)OCCCCCCCCC(=O)O)C[C@@H]1OC[C@H](C[C@@H]2O[C@H]2[C@@H](C)[C@H](C)O)[C@@H](O)[C@H]1O', '0.1 µM (% DMSO)', 103.2),
  ('CO/N=C(\C(=O)N[C@@H]1C(=O)N2C(C(=O)O)=C(COC(N)=O)CS[C@H]12)c1ccco1', '0.1 µM (% DMSO)', 91.1),
  ('NC(=O)c1ncn([C@@H]2O[C@H](CO)[C@@H](O)[C@H]2O)n1', '0.1 µM (% DMSO)', 96.2),
  ('CO[C@H]1/C=C/O[C@@]2(C)Oc3c(C)c(O)c4c(O)c(c(/C=N/N5CCN(C6CCCC6)CC5)c(O)c4c3C2=O)NC(=O)/C(C)=C\C=C\[C@H](C)[C@H](O)[C@@H](C)[C@@H](O)[C@@H](C)[C@H](OC(C)=O)[C@@H]1C', '0.1 µM (% DMSO)', 89.9),
  ('CC(=O)[C@@]1(O)CC[C@H]2[C@@H]3C[C@H](C)C4=CC(=O)C=C[C@]4(C)[C@@]3(F)[C@@H](O)C[C@@]21C', '0.1 µM (% DMSO)', 112.5);

* * *

- System: acutely dissociated and purified rat OPCs
- assay_procedure: Acute OL differentiation assay (MBP expression/cell, immunofluorescent image quantification)
- Assay type: cell-based
- condition_parameters: Rattus norvegicus, test compound at 0.08 uM; MBP expression relative to quetiapine; NCC library screen, sheet "All OLga data"; read-out: 0.08 uM (% Quet)
Counter-ions that a name gives are not always drawn.
Recorded measurements of activation at 0.08 µM, one per entry
readout_label: activation at 0.08 µM (%)

INSERT INTO measurements (compound, value_unit, recorded_value) VALUES
  ('Fc1ccc([C@@H]2CCNC[C@H]2COc2ccc3c(c2)OCO3)cc1 [Paroxetine]', '%', -4.5),
  ('CC(C)n1c(/C=C/C(O)CC(O)CC(=O)O)c(-c2ccc(F)cc2)c2ccccc21 (stereo not shown) [Fluvastatin]', '%', -66.1),
  ('O=C(NCC1CCCCN1)c1cc(OCC(F)(F)F)ccc1OCC(F)(F)F (stereo not shown) [Flecainide]', '%', 2.3),
  ('COC(=O)Nc1nc2ccc(C(=O)c3ccccc3)cc2[nH]1 [Mebendazole]', '%', -29.9),
  ('CCOC(=O)C1=C(C)NC(C)=C(C(=O)OC)C1c1cccc(Cl)c1Cl (stereo not shown) [Felodipine]', '%', -8.1),
  ('CN[C@H]1CC[C@@H](c2ccc(Cl)c(Cl)c2)c2ccccc21 [Sertraline]', '%', -13.2),
  ('CNCCC(Oc1ccc(C(F)(F)F)cc1)c1ccccc1 (stereo not shown) [Fluoxetine hydrochloride]', '%', 13);

* * *

Recorded measurements of 10 µM (% DMSO), one per entry
- System: expanded OPCs
- assay_procedure: cells
- condition_parameters: alamarBlue viability of expanded OPCs, compound at 10 µM, relative to DMSO control
readout_label: 10 µM (% DMSO)

INSERT INTO results (compound, readout_label, value_unit, recorded_value) VALUES
  ('O=S(=O)(O)CCS [Mesna]', '10 µM (% DMSO)', '% DMSO', 100.9),
  ('CC(=O)O[C@]1(C(C)=O)CC[C@H]2[C@@H]3C[C@H](C)C4=CC(=O)CC[C@]4(C)[C@H]3CC[C@@]21C [Medroxyprogesterone acetate]', '10 µM (% DMSO)', '% DMSO', 118.4),
  ('CC(C)Cc1ccc(C(C)C(=O)O)cc1 (stereo not drawn) [Ibuprofen]', '10 µM (% DMSO)', '% DMSO', 89.1),
  ('CC1(C)S[C@@H]2[C@H](NC(=O)[C@H](N)c3ccccc3)C(=O)N2[C@H]1C(=O)O [Ampicillin]', '10 µM (% DMSO)', '% DMSO', 94.1),
  ('N[C@@H](Cc1cc(I)c(Oc2ccc(O)c(I)c2)c(I)c1)C(=O)O [Triiodothyronine]', '10 µM (% DMSO)', '% DMSO', 207.1),
  ('CC1(C)S[C@@H]2[C@H](NC(=O)COc3ccccc3)C(=O)N2[C@H]1C(=O)O [Penicillin V]', '10 µM (% DMSO)', '% DMSO', 93.4),
  ('CC(C)NCC(O)COc1cccc2[nH]ccc12 (stereo not drawn) [Pindolol]', '10 µM (% DMSO)', '% DMSO', 86.5),
  ('CCCNC(C)C(=O)Nc1ccccc1C (stereo not drawn) [Prilocaine]', '10 µM (% DMSO)', '% DMSO', 89.6),
  ('Cc1onc(-c2c(Cl)cccc2Cl)c1C(=O)N[C@@H]1C(=O)N2[C@@H]1SC(C)(C)[C@@H]2C(=O)O [Dicloxacillin]', '10 µM (% DMSO)', '% DMSO', 76.5),
  ('CC(=O)OCC(=O)[C@@]12OC(C)(C)O[C@@H]1C[C@H]1[C@@H]3C[C@H](F)C4=CC(=O)C=C[C@]4(C)[C@@]3(F)[C@@H](O)C[C@@]12C [Fluocinonide]', '10 µM (% DMSO)', '% DMSO', 80.4),
  ('NS(=O)(=O)c1cc2c(cc1C(F)(F)F)NC(Cc1ccccc1)NS2(=O)=O (stereo not drawn) [Bendroflumethiazide]', '10 µM (% DMSO)', '% DMSO', 98.5),
  ('Clc1ccc(COC(Cn2ccnc2)c2ccc(Cl)cc2Cl)c(Cl)c1 (stereo not drawn) [Miconazole]', '10 µM (% DMSO)', '% DMSO', 9.2),
  ('O=C(C1CCCCC1)N1CC(=O)N2CCc3ccccc3C2C1 (stereo not drawn) [Praziquantel]', '10 µM (% DMSO)', '% DMSO', 85.6),
  ('Oc1ncnc2[nH]ncc12 [Allopurinol]', '10 µM (% DMSO)', '% DMSO', 89.6),
  ('C[C@H]1c2cccc(O)c2C(=O)C2=C(O)[C@]3(O)C(=O)C(C(N)=O)=C(O)[C@@H](N(C)C)[C@@H]3[C@@H](O)[C@@H]21 [Doxycycline]', '10 µM (% DMSO)', '% DMSO', 82.8),
  ('NS(=O)(=O)c1cc(C2(O)NC(=O)c3ccccc32)ccc1Cl (stereo not drawn) [Chlorthalidone]', '10 µM (% DMSO)', '% DMSO', 81.7),
  ('CC(C)NCC(O)COc1ccc(CC(N)=O)cc1 (stereo not drawn) [Atenolol]', '10 µM (% DMSO)', '% DMSO', 146.2),
  ('CC[C@@H](CO)NCCN[C@@H](CC)CO [Ethambutol]', '10 µM (% DMSO)', '% DMSO', 85.9);

* * *

- Test system: expanded OPCs
- assay_procedure: cells
- condition_parameters: Rattus norvegicus, 72 h, read-out: 1 µM (% DMSO), alamarBlue viability of expanded OPCs, compound at 1 µM, sheet All Tox data
- From the text: Having established a consistent assay for measuring OL differentiation in vitro, the next step was to utilize this assay to assess the ability of a wide array of compounds to promote OL differentiation. Prior to library screening, we first established the maximum non-toxic dose of each compound in the library. […] Three days later, we assessed viability of the treated cells by measuring AlamarBlue fluorescence, a measure of cell viability (see “Methods” section). […]
readout_label: viability at 1 µM

INSERT INTO assay_data (compound, readout_label, recorded_value) VALUES
  ('COc1cc(N)c(Cl)cc1C(=O)NC1CN2CCC1CC2 (stereo not drawn) [Zacopride]', 'viability at 1 µM', '88.6%'),
  ('COc1cc2nc(N(C)CCCNC(=O)C3CCCO3)nc(N)c2cc1OC (stereo not drawn)', 'viability at 1 µM', '89.6%'),
  ('CCCc1nc(C(C)(C)O)c(C(=O)O)n1Cc1ccc(-c2ccccc2-c2nnn[nH]2)cc1', 'viability at 1 µM', '87.4%'),
  ('O=c1[nH]cnc2c1ncn2[C@H]1CC[C@@H](CO)O1', 'viability at 1 µM', '88.2%'),
  ('CC(c1cc2ccccc2s1)N(O)C(N)=O (stereo not drawn)', 'viability at 1 µM', '89.4%'),
  ('COc1ccc(-c2oc3c(CC=C(C)C)c(O[C@@H]4O[C@H](CO)[C@@H](O)[C@H](O)[C@H]4O)cc(O)c3c(=O)c2O[C@@H]2O[C@@H](C)[C@H](O)[C@@H](O)[C@H]2O)cc1', 'viability at 1 µM', '88.3%'),
  ('Cc1ncc([N+](=O)[O-])n1CCO', 'viability at 1 µM', '88.7%'),
  ('COc1ccccc1N1CCN(CCCNc2cc(=O)n(C)c(=O)n2C)CC1', 'viability at 1 µM', '89.8%'),
  ('O=c1[nH]c(=O)n(C2CCCO2)cc1F (stereo not drawn)', 'viability at 1 µM', '92.6%'),
  ('NC(=O)N1c2ccccc2CC(=O)c2ccccc21 [Oxcarbazepine]', 'viability at 1 µM', '92%'),
  ('Cc1ccc(-c2nc3ccc(C)cn3c2CC(=O)N(C)C)cc1', 'viability at 1 µM', '90.8%'),
  ('CNC(=C[N+](=O)[O-])NCCSCc1csc(CN(C)C)n1', 'viability at 1 µM', '89%');
